Molecular target: CIB1 and αIIb interaction (CIB1-GST : F-αIIb peptide) (Homo sapiens)
Construct: made in house; host or cells: BL-21 plus RIL cells (E. coli)
Sequence (Q99828 whole entry): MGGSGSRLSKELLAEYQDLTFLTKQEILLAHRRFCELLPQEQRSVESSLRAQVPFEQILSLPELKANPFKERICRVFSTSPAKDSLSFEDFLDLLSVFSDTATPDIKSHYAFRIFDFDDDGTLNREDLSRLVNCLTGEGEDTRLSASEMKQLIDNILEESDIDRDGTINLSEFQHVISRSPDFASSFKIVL
Assay: FP assay, 1536-well qHTS format (primary and confirmatory screen)
Type: binding
Details: qHTS primary screen hits, Table S2; negative = inhibition
Efficacy (%) of -50% or higher: Criterion met. Under -50%: Criterion not met.

{"COMPOUND": "O=C(O)C(F)(F)F.O=C1CC(c2ccccc2Cl)c2sc(N3CCOCC3)nc2N1 (centres unmarked) [NCGC00488256-02]", "CLASS ASSIGNMENT": "Criterion not met"}
{"COMPOUND": "COc1ccc(OC)c(-n2c3c(cc(-c4nnn(-c5ccc(Cl)cc5)n4)c2=O)C(=O)CC(C)(C)C3)c1.O=C(O)C(F)(F)F [NCGC00347300-01]", "CLASS ASSIGNMENT": "Criterion met"}
{"COMPOUND": "O=C(O)C(F)(F)F.O=C(c1cnc(N2CCCCC2)c2ccccc12)N1CCN(c2ccccc2)CC1 [NCGC00262736-01]", "CLASS ASSIGNMENT": "Criterion not met"}
{"COMPOUND": "CCN(CC)C(=O)[C@@H]1C=C2c3cccc4[nH]cc(c34)C[C@H]2N(C)C1 [NCGC00168265-02]", "CLASS ASSIGNMENT": "Criterion not met"}
{"COMPOUND": "Cc1cc(C)nc(NC(=S)N2CCN(c3cc4ccccc4cn3)CC2)c1.O=C(O)C(F)(F)F [NCGC00244142-01]", "CLASS ASSIGNMENT": "Criterion met"}
{"COMPOUND": "Cc1ccnc(NC(=S)N2CC[C@@H](Nc3cccc(C(F)(F)F)c3)C2)c1 [NCGC00241356-01]", "CLASS ASSIGNMENT": "Criterion met"}
{"COMPOUND": "Oc1c(Cl)cc(Cl)c(Cl)c1Cc1c(O)c(Cl)cc(Cl)c1Cl [NCGC00091195-08]", "CLASS ASSIGNMENT": "Criterion not met"}
{"COMPOUND": "C=C1c2cccc(O)c2C(O)=C2C(=O)[C@]3(O)C(O)=C(C(N)=O)C(=O)[C@@H](N(C)C)[C@@H]3[C@@H](O)[C@H]12.Cl [NCGC00179358-04]", "CLASS ASSIGNMENT": "Criterion not met"}

Data provenance: paper PMC11249646
